Hey, just so you know, these numbers are from the supplement of paper PMC13380429.

# System: U2OS
# Assay text: cell viability relative to DMSO; higher = less toxic
# Condition info: 72 h; 100 nM
Measurement name: cell viability (%)
Report only the number, with the unit % understood.

{"columns": ["Compound", "Units", "cell viability"],
 "data": [
  ["COc1cc2c(cc1C(F)(F)F)N(C(=O)Nc1cc(F)cc(-c3cccnc3)c1)CC2", "%", 97.4]
]}

Which cell viability value belongs to CSc1ccc(C(=O)N[C@@H]2CCCC[C@@H]2NC(=O)CNC(=O)c2cc(C(F)(F)F)ccc2NC(=O)NC(C)C)cc1 ? 96.5

Which cell viability value belongs to CC(=O)CC(=O)O [lithium-acetoacetate] ? 98.1

Which cell viability value belongs to O=C(Nc1cccc2cccnc12)c1ccc(N2C(=O)[C@@H]3[C@H](C2=O)[C@H]2C=C[C@@H]3C2)cc1 [exo-IWR-1] ? 99.6

Which cell viability value belongs to c1cc(-c2cnn3cc(-c4ccc(OCCN5CCCCC5)cc4)cnc23)ccn1 ? 95.9

Which cell viability value belongs to Cc1oc(=O)oc1CN1CCN(c2cc3c(cc2F)c(=O)c(C(=O)O)c2n3C(C)S2)CC1 (configuration not stated) ? 100

Which cell viability value belongs to CCC(NC(C)C)C(O)c1ccc(O)c(O)c1 (configuration not stated) ? 95.1
